These data points were gathered from ChEMBL document CHEMBL1201862.

Measured GI50 accompanies every entry in the list below.
- Test system: RXF 631
- ASSAY: NCI tumour cell line growth inhibition, 48 h
Calls of active or inactive are those of the source. Cut-off read from the data, not from the text of the source: active = GI50 up to about 1.1 µM and inactive = higher.

MOLECULE: COc1ccc(C(=O)CC2=Nc3nnc(CCCCCCCc4nnc5n4C(=O)C(CC(=O)c4ccc(OC)cc4)=N5)n3C2=O)cc1
ASSAY TARGET: RXF 631
GI50: > 100 µM (inactive)

MOLECULE: COc1ccc2[nH]c3c(cnn4cnnc34)c2c1
ASSAY TARGET: RXF 631
GI50: > 100 µM (inactive)

MOLECULE: OCC(CO)C1c2cccc3ccc4cccc1c4c23
ASSAY TARGET: RXF 631
GI50: > 100 µM (inactive)

MOLECULE: C[C@]12CCC(=O)C(O)=C1CC[C@@H]1[C@@H]2CC[C@]2(C)C(=O)CC[C@@H]12
ASSAY TARGET: RXF 631
GI50: > 100 µM (inactive)

MOLECULE: O=C1NC(=O)C(C(=O)C(=O)Nc2ccc(Br)cc2)C(=O)N1
ASSAY TARGET: RXF 631
GI50: > 100 µM (inactive)

MOLECULE: CC[n+]1c(/C=C/c2ccc(N(CCCl)CCCl)cc2)ccc2cc(Br)ccc21
ASSAY TARGET: RXF 631
GI50: 630 µM (inactive)

MOLECULE: C=C1CC(C/C=C(\C)CC2CC(=C)C(=O)O2)OC1=O (stereo not given)
ASSAY TARGET: RXF 631
GI50: > 100 µM (inactive)

MOLECULE: COc1cc(CNc2nc3c(N)cc(C(F)(F)F)cc3nc2-c2ccccc2)cc(OC)c1OC
ASSAY TARGET: RXF 631
GI50: 44.3 µM (inactive)

MOLECULE: O=C1Cc2c([nH]c3ccccc23)-c2cc(Br)ccc2N1
ASSAY TARGET: RXF 631
GI50: > 100 µM (inactive)

MOLECULE: C=CC[P@]1(=O)O[C@H](c2ccccc2)C(C)N1C(C)C (stereo not given in full)
ASSAY TARGET: RXF 631
GI50: > 100 µM (inactive)
